SETUP CONDITIONS: in acetone, 323.15 K
MEASURED QUANTITY: solubility (mole fraction)

Enquiry: Which solubility (mole fraction) is reported for this compound? `O=C(Nc1ccc(F)cc1F)c1cccnc1Oc1cccc(C(F)(F)F)c1`
Return: 0.0408

* * *

SETUP CONDITIONS: in toluene, 283.15 K
MEASURED QUANTITY: solubility (mole fraction)
Give bare numbers.

Enquiry: If you can, please state the reported solubility (mole fraction) value of `O=C(Nc1ccc(F)cc1F)c1cccnc1Oc1cccc(C(F)(F)F)c1` .
Return: 0.00638

* * *

SETUP CONDITIONS: in acetone, 303.15 K
MEASURED QUANTITY: solubility (mole fraction)
Give bare numbers.

Enquiry: Quick one: solubility (mole fraction) of `O=C(Nc1ccc(F)cc1F)c1cccnc1Oc1cccc(C(F)(F)F)c1` ?
Return: 0.021
